test: gradient 5% acetonitrile 3 min, to 50% in 2 min, to 85% in 15 min, held 3 min, 100 µL/min; settings: column: Zorbax Extend-C18 2.1 x 50 mm; eluents: water / acetonitrile, 0.1% formic acid
endpoint-label: RP-LC retention time (s)

Solved entries:
compound | value-reported
CCOC(=O)c1cccc(NC(=O)Cc2csc3nc(-c4ccc(OC)c(OC)c4)cn23)c1 | 761
Cc1noc([C@H]2CCN(C3CCSCC3)C[C@H]2NC(=O)C2CC2)n1 | 576
O=C(NC1CC1)c1cn(-c2ccc(-c3nc(C4CC4)no3)cn2)cn1 | 762
CC1=C(c2ccc(C)cc2)S(=O)(=O)N=C1N1CCCN(C(=O)c2cccnc2)CC1 | 687
CCOCCOC1CCN(C(=O)c2cccs2)CC1 | 725

P = CCOC(=O)c1cc(S(=O)(=O)N2CCCC2C(=O)Nc2cccc(Br)c2)cn1C (stereo not given)
Q = COc1ccc2[nH]c(=O)c(CCC(=O)NCCCN3CCCC3=O)cc2c1
Between the entries labeled P and Q , whose measured RP-LC retention time is lower? Write the label of whichever entry you select.
Q
